So I've got a bunch of compounds here, and I need their T/C values.
# System: L1210 leukemia ip in BDF1 mice, survival T/C
# EXPERIMENTAL DETAILS: NCI In Vivo Anticancer Drug Screen. Data for tumor model L1210 Leukemia (intraperitoneal) in B6D2F1 (BDF1) mice
# CONDITIONS: endpoint: mean survival time; dose: 50.0 mg/kg/injection; schedule: Q04DX002 (ip); vehicle: Klucel (hydroxypropylcellulose) (HPC); higher = longer survival
Toxic doses and inconclusive results are not listed.

Please review the following examples before continuing.
COMPOUND	TARGET DESC	T/C
CCc1oc2cc([N+](=O)[O-])ccc2c1C#N	L1210 leukemia ip in BDF1 mice, survival T/C	89 % of control
Cc1cc(=O)oc2c(OC(=O)N(CCCl)CCCl)c(OC(=O)N(CCCl)CCCl)ccc12	L1210 leukemia ip in BDF1 mice, survival T/C	94 % of control
COc1ccc(NC(=O)Nc2ccccc2)cc1	L1210 leukemia ip in BDF1 mice, survival T/C	105 % of control
C/C(=N/NC(=S)Nc1cc(I)ccc1C)c1cc(C)ccc1O	L1210 leukemia ip in BDF1 mice, survival T/C	94 % of control
CCOC(=O)C1C(=O)Nc2c(ccc3ccccc23)N1C(C)=O (stereo unspecified)	L1210 leukemia ip in BDF1 mice, survival T/C	96 % of control

Please report T/C for every entry that follows.
1. [Cl][Pd][Cl].[NH-]C1CCCCC1.[NH-]C1CCCCC1
2. CC(=O)Oc1c(-c2ccccc2)cc([N+](=O)[O-])cc1[N+](=O)[O-]
3. COc1cc2c(c(-c3c(O)c(OC)cc4c3CC[n+]3cc5c(OC)c(OC)ccc5cc3-4)c1O)CC[n+]1cc3c(OC)c(OC)ccc3cc1-2
4. FC(F)(F)c1ccc(C=C2c3ccccc3-c3ccccc32)cc1
5. OC1C(Br)C2C3CC4C(C13)C42 (stereo unspecified)
6. CC([NH-])C[NH-].[Cl][Pd][Cl] (stereo unspecified)

["94 % of control", "97 % of control", "100 % of control", "92 % of control", "97 % of control", "90 % of control"]

----------
# System: L1210 leukemia ip in BDF1 mice, survival T/C
# EXPERIMENTAL DETAILS: NCI In Vivo Anticancer Drug Screen. Data for tumor model L1210 Leukemia (intraperitoneal) in B6D2F1 (BDF1) mice
# CONDITIONS: endpoint: mean survival time; dose: 75.0 mg/kg/injection; schedule: Q01DX001 (ip); vehicle: carboxymethylcellulose (CMC); higher = longer survival
Inconclusive results and toxic doses are left out.
TEST READOUT: T/C

Here's what some known entries look like.
COMPOUND	TARGET DESC	RESULT
O=C(O)C(=O)c1ccc(-c2ccccc2)cc1	L1210 leukemia ip in BDF1 mice, survival T/C	101 % of control
CC(=O)N=c1sccn1Cc1ccccc1	L1210 leukemia ip in BDF1 mice, survival T/C	95 % of control
CC(C)(C)OC(=O)NOc1ccc([N+](=O)[O-])cc1[N+](=O)[O-]	L1210 leukemia ip in BDF1 mice, survival T/C	96 % of control
O=S1(=O)C=C2CCCCC21 (stereo not given)	L1210 leukemia ip in BDF1 mice, survival T/C	100 % of control

Okay, now this compound:
Lab note: need T/C with L1210 leukemia ip in BDF1 mice, survival T/C for entry `O=[N+]([O-])c1ccc2cccnc2c1` , please look it up.
106 % of control

----------
Hi there, I'd appreciate the recorded T/C for every entry that follows.
# System: L1210 leukemia ip in BDF1 mice, survival T/C
# EXPERIMENTAL DETAILS: NCI In Vivo Anticancer Drug Screen. Data for tumor model L1210 Leukemia (intraperitoneal) in B6D2F1 (BDF1) mice
# CONDITIONS: endpoint: mean survival time; dose: 50.0 mg/kg/injection; schedule: Q01DX009 (ip); vehicle: saline; higher = longer survival
Toxic doses and inconclusive results are not listed.

See these solved cases before continuing.
COMPOUND	RESULT
OCC1OCC(O)C(O)C1O (configuration not stated)	94 % of control
CCCOC(CN)C(Cl)(Cl)Cl (configuration not stated)	98 % of control
O=C1N2CCOC2=NC1(c1ccccc1)c1ccccc1	111 % of control
CC(C)CCN=C(N)N=C(N)N	107 % of control
CN(N=O)C(=O)NCC1OC(OC2(CO)OC(CNC(=O)N(C)N=O)C(O)C2O)C(O)C(O)C1O (configuration not stated)	91 % of control

Below are 2 compounds. Give each one its T/C.
1. Oc1ccc(CNCCNCCNCc2ccc(O)cc2)cc1
2. Oc1cccnc1CN1CCCCC1

1. 93 % of control
2. 91 % of control

----------
# Tested on: L1210 leukemia ip in BDF1 mice, survival T/C
# EXPERIMENTAL DETAILS: NCI In Vivo Anticancer Drug Screen. Data for tumor model L1210 Leukemia (intraperitoneal) in B6D2F1 (BDF1) mice
# CONDITIONS: endpoint: mean survival time; dose: 100.0 mg/kg/injection; schedule: Q01DX001 (ip); vehicle: saline; higher = longer survival
Inconclusive results and toxic doses are left out.
Provide the reported T/C of each item.

COMPOUND	T/C
CC(=O)Nc1ccc(OC(=O)Oc2ccc(NC(C)=O)cc2)cc1	97 % of control
Nc1ccc(N=Nc2ccc(S(=O)(=O)Nc3nccs3)cc2)c(N)n1	102 % of control
O=Nn1cc(-c2cc3ccccc3n2N=O)c2ccccc21	93 % of control

Could you report T/C for every entry in the following list?
1. c1ccc2c(c1)ccc1cc3cnccc3cc12
2. CCCCC(=O)N/N=C/c1ccc(N(C)C)cc1
3. COCn1cnc2c(ccn2C2OC(CO)C(O)C2O)c1=O (stereo unspecified)

1. 95 % of control
2. 91 % of control
3. 93 % of control

----------
# Tested on: L1210 leukemia ip in BDF1 mice, survival T/C
# EXPERIMENTAL DETAILS: NCI In Vivo Anticancer Drug Screen. Data for tumor model L1210 Leukemia (intraperitoneal) in B6D2F1 (BDF1) mice
# CONDITIONS: endpoint: mean survival time; dose: 12.5 mg/kg/injection; schedule: Q01DX001 (ip); vehicle: saline with Tween-80; higher = longer survival
Inconclusive results and toxic doses are left out.
TEST READOUT: T/C

Check out these entries, answers already filled in.
MOLECULE	T/C
O=C1C(Cl)=C(NC2CCCC2)C(=O)c2ccccc21	94 % of control
c1ccc(NC2=NCCCN2)cc1	102 % of control
CCSc1ncnc2c1nnn2C1OC(CO)C(O)C1O (centres undefined)	100 % of control

Here's the next entry for you.
Entry `O=C(O)c1cc(CBr)cc(CBr)c1` : reported T/C = ?
113 % of control

----------
# Test system: L1210 leukemia ip in BDF1 mice, survival T/C
# EXPERIMENTAL DETAILS: NCI In Vivo Anticancer Drug Screen. Data for tumor model L1210 Leukemia (intraperitoneal) in B6D2F1 (BDF1) mice
# CONDITIONS: endpoint: mean survival time; dose: 200.0 mg/kg/injection; schedule: Q01DX001 (ip); vehicle: saline; higher = longer survival
Inconclusive results and toxic doses are left out.
Kindly supply the reported T/C values for the records listed here.

Answered cases to consult:
MOLECULE	T/C
CCOC(=O)N/N=C/c1ccc([N+](=O)[O-])cc1	98 % of control
Clc1cccc(/C=N/Nc2nnc(N/N=C/c3cccc(Cl)c3)c3ccccc23)c1	100 % of control

Take each entry in turn and give its T/C.
1. O=C1C(O)=C(O)C(=O)C(O)=C1O
2. CCSc1nc2c([nH]1)c(=S)n(C)c(=O)n2C
3. COc1[nH]c(=O)ncc1Br

1. 100 % of control
2. 112 % of control
3. 109 % of control

Report T/C for every entry below.
1. CS(=O)(=O)OCCN(CCOS(C)(=O)=O)c1ccc(/C=N/Nc2ncnc3nc[nH]c23)cc1
2. CC(C)(O)C(O)c1ccccc1 (stereo not drawn)
3. CCN(CCO)CCNc1ccc(C)c2sc3ccccc3c(=O)c12
4. CSc1nc(C)c(C)c(=O)[nH]1
5. O=c1[nH]nc(-c2ccccc2)c2ccccc12
6. CSCCC(O)C(=O)O (stereo not drawn)
7. Cc1cccn(C)c1=O

1: 119 % of control; 2: 101 % of control; 3: 121 % of control; 4: 116 % of control; 5: 93 % of control; 6: 95 % of control; 7: 101 % of control

// T/C lookup, key: C=COC(=O)NC(Cc1ccccc1)C(=O)O (stereo not drawn)
89 % of control

----------
For each entry below, report its T/C value.
# Test system: L1210 leukemia ip in BDF1 mice, survival T/C
# EXPERIMENTAL DETAILS: NCI In Vivo Anticancer Drug Screen. Data for tumor model L1210 Leukemia (intraperitoneal) in B6D2F1 (BDF1) mice
# CONDITIONS: endpoint: mean survival time; dose: 100.0 mg/kg/injection; schedule: Q01DX009 (ip); vehicle: saline with Tween-80; higher = longer survival
Toxic doses and inconclusive results are not listed.

Take each entry in turn and give its T/C.
1. Cc1ccccc1C(=O)NCC(=O)O
2. O=C(COc1cccc(Cl)c1)Nc1ccccc1
3. CNC(=S)N/N=C(\c1ccccc1)c1ccccn1
4. CCC(=O)Nc1ccccc1Cl

1. 91 % of control
2. 94 % of control
3. 100 % of control
4. 97 % of control
